# Test system: GBM9 CSCs
# protocol details: Cytotoxic assay (sulforhodamine B growth inhibition, 72 hours)
# Format: cell-based, human
# recorded conditions: at least three independent experiments, read-out: EC50 +/− SEM, cytotoxic activity
endpoint name: EC50 (nM)
Write it as a number; the unit nM goes unstated.

Q: Return EC50 for the following compound: N#CCCNc1nonc1-c1nc2ccccc2n1CC(=O)c1ccc(N)cc1
A: 21.7

====

# System: GBM6 CSCs
# protocol details: Cytotoxic assay (sulforhodamine B growth inhibition, 72 hours)
# Type: cell-based, human
# recorded conditions: at least three independent experiments, read-out: EC50 +/− SEM, cytotoxic activity
endpoint name: pEC50
Entry type: numeric. Quantity: pEC50, the -log10 of concentration in molar units.

Q: Return pEC50 for the following compound: N#CCCNc1nonc1-c1nc2ccccc2n1CC(=O)c1ccc(N)cc1
A: 7.68

These entries and their values trace back to patent US20180306790A1.
